// z-score lookup, one value per entry
- SYSTEM: NADPH oxidase 2 (Homo sapiens) (UniProt P04839)
- Sequence (P04839 whole entry, looked up): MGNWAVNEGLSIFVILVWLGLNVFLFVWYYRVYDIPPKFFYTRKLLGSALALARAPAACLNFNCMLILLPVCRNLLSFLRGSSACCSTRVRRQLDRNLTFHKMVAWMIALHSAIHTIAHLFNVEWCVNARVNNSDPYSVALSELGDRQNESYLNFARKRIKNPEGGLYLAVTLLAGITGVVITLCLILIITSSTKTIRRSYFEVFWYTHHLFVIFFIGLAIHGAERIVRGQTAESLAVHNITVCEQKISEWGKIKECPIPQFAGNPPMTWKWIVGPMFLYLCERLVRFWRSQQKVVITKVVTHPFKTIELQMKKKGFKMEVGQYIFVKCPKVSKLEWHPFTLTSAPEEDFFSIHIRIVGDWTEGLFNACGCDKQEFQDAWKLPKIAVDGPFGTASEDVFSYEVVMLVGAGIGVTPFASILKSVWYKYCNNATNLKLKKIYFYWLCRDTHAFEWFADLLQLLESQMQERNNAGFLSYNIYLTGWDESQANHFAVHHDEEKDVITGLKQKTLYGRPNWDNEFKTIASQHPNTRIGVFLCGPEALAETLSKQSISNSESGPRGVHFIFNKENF
- ASSAY_SUMMARY: compounds shifting NOX2 Amplex Red fluorescence – cell-based, HEK293-NOX2, PMA-stimulated, NOX inhibitor project, primary screen (AID 1159); also: test concentration not given here
- PARTICULARS: 45 min, higher = more signal, called active from +8 up or from −8 down
The source made the active and inactive calls.

See these solved cases before continuing.
CCCC=C(CCC)[C@@H](NS(=O)(=O)CC)c1ccccc1 :: -1.32 (inactive)
CCCCC(=C=CC[C@H](O)c1cccc(OCCO)c1)C[C@H](O)COCc1ccccc1 :: -2.67 (inactive)
COCCOC(=O)N1C(=O)[C@@]2(c3ccccc31)[C@H](c1ccccc1OCCO)N1[C@H](c3ccccc3)[C@H](c3ccccc3)OC(=O)[C@H]1[C@@H]2C(=O)N1CCc2cc(OC)c(OC)cc2C1 :: 1.15 (inactive)
C=CC[C@]1(C(=O)NCC(O)CO)N=C(c2ccc(OCCCO)cc2)O[C@H]1c1ccccc1N=[N+]=[N-] (some centres not stated) :: -0.357 (inactive)
C=CCC(OC(C)=O)[C@@H]1[C@@H](N(Cc2cc3ccccc3o2)C(=O)Cc2ccc(OC)cc2)c2cc(OCCCO)ccc2N1C(=O)c1ccc(-c2ccccc2)cc1 (some centres not stated) :: 0.125 (inactive)
CCOC(=O)C1=CCC(c2cccc(Cl)c2)O1 (configuration not stated) :: -4.41 (inactive)
O=C1c2ccccc2[C@](Cc2ccccc2I)(C(=O)NCC(F)(F)F)[C@H](c2ccc(CO)cc2)N1Cc1ccccc1 :: 0.738 (inactive)
COc1ccccc1CN1C(=O)c2ccccc2[C@](Cc2ccccc2I)(C(=O)NCCN2CCOCC2)[C@@H]1c1ccc(CO)cc1 :: -1.81 (inactive)
O=C1CSC(c2cccc([N+](=O)[O-])c2)N1c1ccccc1 (configuration not stated) :: -0.276 (inactive)
COCCCNC(=O)[C@@]1(Cc2ccccc2I)c2ccccc2C(=O)N(Cc2ccccc2Cl)[C@H]1c1ccc(CO)cc1 :: 0.374 (inactive)

Recorded z-score for O=C1OCCC=C[C@H]2OC34C=CCN(Cn5nnc6ccccc65)C(=O)[C@H]3N(CCCCCO)C(=O)[C@@H]4C12 (some centres not stated) with NADPH oxidase 2 (Homo sapiens) (UniProt P04839), please?
1.4 (inactive)

Then this compound: C=CCC(OC(C)=O)[C@@H]1[C@@H](N(Cc2ccc(-c3cccc(C(F)(F)F)c3)o2)C(=O)c2cccc3ccccc23)c2cc(OCCCO)ccc2N1C(=O)c1ccc(-c2ccccc2)cc1 (some centres not stated)
-0.959 (inactive)

Then this compound: CC(C)C[C@@H]1NC(=O)[C@@H]2C[C@H](C(=O)NCCCC[N+](C)(C)C)[C@H](c3cccc(OCCO)c3)N2C1=O
-1.2 (inactive)

Then this compound: CC(C)(C)OC(=O)CC[C@@]1(C(=O)N2CCCCC2)N=C(c2ccc(OCCCO)cc2)O[C@@H]1c1ccccc1N=[N+]=[N-]
-2.98 (inactive)

Then this compound: C=CCOC(=O)[C@@H]1[C@H]2C(=O)O[C@H](c3ccccc3)[C@H](c3ccccc3)N2[C@H](c2ccc(OCCOC(=O)[C@@H]3C[C@@H]4C(=O)N5CCC[C@H]5C(=O)N4[C@@H]3c3cccc(OCCO)c3)cc2)[C@@]12C(=O)Nc1ccc(I)cc12
1.82 (inactive)

* * *

- ASSAY_SUMMARY: JC-1 mitochondrial signal, unstimulated adipocytes – cell-based, JC-1 fluorescence, 3T3-L1 adipocytes, 24 h, 100 nL compound, profiling panel (AID 1168); also: test concentration not given here
- PARTICULARS: JC-1 mitochondrial fluorescence, higher = more signal, called active from +8 up or from −8 down
// z-score lookup, one value per entry
Respond with the number and no other words.

CCOC(=O)C[C@H]1[C@H](OC(=O)c2ccccc2-c2ccccc2)[C@@H](NC(=O)c2ccccc2)c2cc(OCCCO)ccc2N1C(=O)Cc1ccc(OC)cc1 :: -0.387

Value lookup for z-score; key = Cc1cc(C)c(C(O)C2C=CC3C(=O)N(c4ccccc4)C(=O)C3N2Nc2ccccc2)c(C)c1 (centres undefined)
-0.422

Then this molecule: C=C(/C(=C/C[C@@H](OC(C)=O)c1ccccc1OCCO)c1cnc2ccccc2c1)C(C)C
-1.27

Then this molecule: [N-]=[N+]=NCc1ccccc1C[C@@]1(C(=O)NCCN2CCOCC2)N=C(c2ccc(OCCCO)cc2)O[C@@H]1c1ccccc1CN=[N+]=[N-]
0.0123

* * *

// composite z-score lookup, one value per entry
- SYSTEM: Calmodulin-1 (Homo sapiens) (UniProt P0DP23)
- ASSAY_SUMMARY: small molecules binding calmodulin-1 with EGTA – biochemical, small-molecule microarray, Cy5-labelled CALM1, profiling panel (AID 1111);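 also: labelled calmodulin applied in Tris saline Tween buffer holding calcium plus EGTA and DTT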
- PARTICULARS: Cy5-CALM1 binding fluorescence, higher = more signal
Respond with the number and no other words.

CCOC(=O)C[C@H]1[C@H](OC(=O)c2cc3ccccc3oc2=O)[C@@H](NC(=O)c2ccc3ccccc3n2)c2cc(OCCCO)ccc2N1C(=O)c1ccc2ccccc2n1 :: -0.145
C[N+](C)(C)CCCCCCNC(=O)[C@@H]1C[C@@H]2C(=O)NCC(=O)N2[C@@H]1c1ccc(O)cc1 :: 0.334
CO[C@H]1O[C@H](CO)[C@@H](OC(=O)Nc2cccc(F)c2)[C@H](OC(=O)Nc2ccc3c(c2)OCO3)[C@H]1OC(=O)Nc1ccc2c(c1)OCO2 :: 0.67
NC(=O)NCC#Cc1ccc2c(c1)[C@]1(C(=O)N2)[C@H](c2ccc(O)cc2)N2[C@H](c3ccccc3)[C@H](c3ccccc3)OC(=O)[C@H]2[C@@H]1C(=O)NC[C@H](O)c1ccccc1 :: -0.699
COc1ccccc1CN1C(=O)c2ccccc2[C@](Cc2ccccc2I)(C(=O)NCCN2CCOCC2)[C@@H]1c1ccc(CO)cc1 :: 0.688

Now examine the next entry.
Value lookup for composite z-score; key = COC(=O)[C@@]1(Cc2ccccc2)[C@H]2c3cc(C(=O)N4CCCC4)n(Cc4ccccc4)c3C[C@H]2CN1C(=O)c1ccccc1
1.42

* * *

- ASSAY_SUMMARY: COS7 lysate on small-molecule microarray, probe aHis, 635 nm (AID 1123);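 also: z-score combines 667nm fluorescence intensity with signal-to-noise per printed compound spot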
- PARTICULARS: COS7 cell lysate, fluorescence, higher = more signal
PROPERTY_MEASURED: composite z-score
Respond with the number and no other words.

See these solved cases before continuing.
CC(=O)NCCCC[C@@H]1NC(=O)[C@H]2C[C@@H](C(=O)NCCCCCN)[C@@H](c3cccc(OCCO)c3)N2C1=O :: 0.898
COCCCNC(=O)[C@@H]1c2ccccc2C(=O)N(Cc2cc(F)cc(C(F)(F)F)c2)[C@H]1c1ccc(CO)cc1 :: -0.838
O=C1O[C@H](c2ccccc2)[C@H](c2ccccc2)N2[C@H]1[C@@H](C(=O)NC[C@H](O)c1ccccc1)[C@]1(C(=O)Nc3ccccc31)[C@H]2c1ccccc1OCCO :: 1.84

Value lookup for composite z-score; key = CC(C)c1ccc(NN2C(C(O)c3ccccn3)C=CC3C(=O)N(c4ccccc4)C(=O)C32)cc1 (centres undefined)
2.92

* * *

- SYSTEM: Torsin-1A-interacting protein 1 (Homo sapiens) (UniProt Q5JTV8)
- Sequence (Q5JTV8 whole entry, looked up): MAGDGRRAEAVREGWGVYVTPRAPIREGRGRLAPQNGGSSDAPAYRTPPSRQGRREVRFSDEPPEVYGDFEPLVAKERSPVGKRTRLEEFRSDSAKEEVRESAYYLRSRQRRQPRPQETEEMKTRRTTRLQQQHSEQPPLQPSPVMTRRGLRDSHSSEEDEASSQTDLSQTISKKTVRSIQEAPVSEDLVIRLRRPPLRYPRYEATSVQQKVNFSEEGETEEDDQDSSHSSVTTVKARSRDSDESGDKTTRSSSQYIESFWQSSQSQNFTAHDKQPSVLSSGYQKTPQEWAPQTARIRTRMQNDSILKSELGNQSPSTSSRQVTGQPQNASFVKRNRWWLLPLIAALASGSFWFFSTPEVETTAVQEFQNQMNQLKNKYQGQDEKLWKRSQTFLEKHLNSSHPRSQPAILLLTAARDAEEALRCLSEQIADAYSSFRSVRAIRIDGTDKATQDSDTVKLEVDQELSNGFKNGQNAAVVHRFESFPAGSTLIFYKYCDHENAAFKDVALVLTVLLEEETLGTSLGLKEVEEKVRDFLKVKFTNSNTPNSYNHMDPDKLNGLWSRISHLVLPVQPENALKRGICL
- ASSAY_SUMMARY: compound microarray binding of lysate hLAP1 – cell lysate, small-molecule microarray, COS7 lysate, 635/667 nm fluorescence, primary screen (AID 1116)
- PARTICULARS: 635 nm fluorescence, higher = more signal
Please enter yes (1) where composite z-score is greater than or equal to 0.2, and no (0) where it is lower.

COCCCNC(=O)[C@@H]1c2ccccc2C(=O)N(Cc2cc(F)cc(C(F)(F)F)c2)[C@H]1c1ccc(CO)cc1 :: no (0)
O=C(Nc1cc(Br)ccc1C(=O)NCc1cccc(O)c1)c1ccccc1 :: yes (1)
Cc1ccc(S[C@]2(C(=O)O)CC(=O)N(C3CCCCC3)[C@@H]2c2ccc(CO)cc2)cc1 :: yes (1)
CCCCC(O)C1C=CC2C(=O)N(Cc3ccccc3)C(=O)C2N1n1cnnc1 (stereo not given) :: yes (1)

Tell me whether composite z-score is at least 0.2 here: COC(=O)[C@@]1(Cc2ccc(F)cc2)[C@H]2c3cc(C(=O)N(C)C)n(CCSCCO)c3C[C@H]2CN1C(=O)c1ccccc1
yes (1)

* * *

- ASSAY_SUMMARY: change in splice reporter luminescence, either direction, cell-based, HEK293, spliceosome inhibition project, primary screen (AID 1101);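 also: HEK293 cells carrying a splicing-competent luciferase reporter gene; test concentration not given here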
- PARTICULARS: HEK293 splicing luciferase reporter, 24 h, higher = more signal, called active from +8 up or from −8 down
The source made the active and inactive calls.
// z-score lookup, one value per entry

COC(=O)[C@@]1(Cc2ccccc2)[C@H]2c3cc(C(=O)N4CCCC4)n(Cc4ccccc4)c3C[C@H]2CN1C(=O)c1ccccc1 :: -2.8 (inactive)
CCOC(=O)C1=CC[C@@H](c2ccc(N(CC)CC)cc2)N(S(=O)(=O)c2ccc(C)cc2)[C@H]1c1ccc([N+](=O)[O-])cc1 :: -1.26 (inactive)
COCCCNC(=O)[C@]1(Cc2ccccc2)N=C(c2ccc(OCCCO)cc2)O[C@@H]1c1ccccc1N=[N+]=[N-] :: -1.51 (inactive)

Now examine the next entry.
Value lookup for z-score; key = COCCOC(=O)N1C(=O)[C@@]2(c3cc(C#CCCO)ccc31)[C@H](C(=O)N1CCc3cc(OC)c(OC)cc3C1)[C@H]1C(=O)O[C@H](c3ccccc3)[C@H](c3ccccc3)N1[C@@H]2c1ccc(OCCO)cc1
-0.575 (inactive)
